# targetOrSystem: human A3 receptor (Homo sapiens, UniProt P0DMS8)
# Sequence (P0DMS8 whole entry): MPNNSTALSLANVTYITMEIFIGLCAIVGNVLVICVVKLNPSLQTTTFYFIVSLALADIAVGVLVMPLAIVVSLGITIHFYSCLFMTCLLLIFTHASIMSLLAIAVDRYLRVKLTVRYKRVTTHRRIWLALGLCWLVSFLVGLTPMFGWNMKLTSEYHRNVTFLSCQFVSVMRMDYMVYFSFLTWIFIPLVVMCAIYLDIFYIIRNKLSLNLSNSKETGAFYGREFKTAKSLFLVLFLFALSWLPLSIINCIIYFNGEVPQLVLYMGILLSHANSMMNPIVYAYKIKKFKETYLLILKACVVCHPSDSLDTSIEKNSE
# assayExplanation: cAMP HTRF functional assay, recombinant CHO cells expressing human A3 receptor, forskolin and agonist IB-MECA
pIC50: −log10 of the molar value.
propertyName: pIC50

Some compounds with recorded pIC50:
COc1ccc(-c2cccc(F)c2F)c2ncc(NC(=O)C3CC3)nc12 = > 6.00
COc1ccc(-c2cc(F)ccc2F)c2ncc(NC(=O)C3CC3)nc12 = > 6.00

Query string: Tell me its pIC50 on human A3 receptor (Homo sapiens, UniProt P0DMS8): COCCOc1cccc(-c2ccc(OC)c3nc(NC(=O)c4nnc(C)s4)cnc23)c1
Result string: < 6.00

Query string: Tell me its pIC50 on human A3 receptor (Homo sapiens, UniProt P0DMS8): COCCOc1cccc(-c2ccc(OC)c3nc(NC(=O)c4cnc(C)s4)cnc23)c1
Result string: < 6.00

Query string: Tell me its pIC50 on human A3 receptor (Homo sapiens, UniProt P0DMS8): COc1ccc(-c2ccc(F)cc2)c2ncc(NC(=O)C3CC3)nc12
Result string: > 6.00

Query string: Tell me its pIC50 on human A3 receptor (Homo sapiens, UniProt P0DMS8): COCCOc1cccc(-c2ccc(OC)c3nc(NC(=O)c4cnc(C)o4)cnc23)c1
Result string: < 6.00

Query string: Tell me its pIC50 on human A3 receptor (Homo sapiens, UniProt P0DMS8): COc1ccc(-c2cc(F)ccc2F)c2ncc(NC(=O)c3cnc(C)o3)nc12
Result string: > 6.00

Query string: Tell me its pIC50 on human A3 receptor (Homo sapiens, UniProt P0DMS8): COc1ncc(C2CCOCC2)c2ncc(NC(=O)C3CC3)nc12
Result string: < 6.00

Query string: Tell me its pIC50 on human A3 receptor (Homo sapiens, UniProt P0DMS8): C#CCC1(O)CCN(C(=O)Nc2cnc3c(C4CCOCC4)ccc(OC)c3n2)CC1
Result string: < 6.00

Query string: Tell me its pIC50 on human A3 receptor (Homo sapiens, UniProt P0DMS8): COc1ccc(-c2ccccc2F)c2ncc(NC(=O)C3CC3)nc12
Result string: > 6.00

Query string: Tell me its pIC50 on human A3 receptor (Homo sapiens, UniProt P0DMS8): COc1ccc(C2=CCOCC2)c2ncc(NC(=O)c3cnsc3)nc12
Result string: < 6.00
